TEST_NAME: Tested for the ability to inhibit the NMDA induced seizures against NMDA antagonist by intraperitoneal administration
Type: functional
MEASUREMENT_SETUP: ip

{"MOLECULE": "CC(=CC(N)C(=O)O)CP(=O)(O)O (centres undefined)", "OUTPUT_UNIT": "mg/kg", "ED50": 3.41}
{"MOLECULE": "N[C@H](C[C@H]1CCCC[C@H]1CCP(=O)(O)O)C(=O)O", "OUTPUT_UNIT": "mg/kg", "ED50": 2.68}
{"MOLECULE": "NC(CC1CCCCC1CCP(=O)(O)O)C(=O)O (centres undefined)", "OUTPUT_UNIT": "mg/kg", "ED50": 12.4}
{"MOLECULE": "O=C(O)[C@@H]1C[C@H](CP(=O)(O)O)CCN1 (single isomer, unassigned)", "OUTPUT_UNIT": "mg/kg", "ED50": 2.64}
